# Test system: Staphylococcus aureus
# test: Antibacterial activity against Staphylococcus aureus ATCC 43300 after 18 to 24 hrs by serial broth microdilution susceptibility test
# Assay type: functional
Starred links: 1 amine or outer side, 2 acyl side, 3 side chain; linkers in the order of their positions; H or OH if unused. Residues, ends and D or L forms follow the SMILES beside them. Groups on a side chain read outwards from the residue. *: point of attachment. εLys = N[C@@H](CCCCN[*:1])C(=O)[*:2]; ClZ = O=C(OCc1ccccc1Cl)*; Cbz = O=C(OCc1ccccc1)*
Entries and their MIC

compound	unit	sign-qualifier	MIC
NC(=O)[C@H](Cc1ccccc1)NC(=O)[C@H](CCCCNC(=O)[C@@H](N)CCCCNC(=O)OCc1ccccc1Cl)NC(=O)[C@@H](N)CCCCNC(=O)OCc1ccccc1Cl (H-Lys(ClZ)-Lys([εLys-ClZ])-Phe-NH2)	µM	=	17
CCCCCCCCNC(=O)[C@H](Cc1ccccc1)NC(=O)[C@H](CCCCNC(=O)[C@@H](N)CCCCNC(=O)OCc1ccccc1Cl)NC(=O)[C@@H](N)CCCCNC(=O)OCc1ccccc1Cl	µM	=	8
CCCCCCCCNC(=O)[C@H](Cc1ccccc1)NC(=O)[C@H](CCCCNC(=O)[C@@H](N)CCCCN)NC(=O)[C@@H](N)CCCCN	µM	=	128
CCCCCCCCCCCCNC(=O)[C@H](Cc1ccccc1)NC(=O)[C@H](CCCCNC(=O)[C@@H](N)CCCCN)NC(=O)[C@@H](N)CCCCN.Cl.Cl.Cl.Cl	µM	=	4
NCCCC[C@H](NC(=O)OCc1ccccc1)C(=O)NCCCC[C@H](NC(=O)[C@H](CCCCN)NC(=O)OCc1ccccc1)C(=O)N[C@@H](Cc1ccccc1)C(N)=O (Cbz-Lys-Lys([Lys-Cbz])-Phe-NH2)	µM	>	144

Cited source for all entries: ChEMBL document CHEMBL1949532
